# System: Streptococcus pneumoniae
# PROTOCOL_TEXT: Antimicrobial activity against levofloxacin-resistant Streptococcus pneumoniae by broth microdilution method
# Format: functional
READOUT_LABEL: MIC90 (µg/mL)
Lab book: enter the figure in µg/mL, no units written.

Some solved entries appear below for comparison.
- COMPOUND: "C[C@@H](O)[C@H]1C(=O)N2C(C(=O)O)=C(SCCNC=N)C[C@H]12 [IMIPENEM ANHYDROUS]"
  MIC90 [µg/mL]: 0.25
- COMPOUND: "CO/N=C(\\C(=O)N[C@@H]1C(=O)N2C(C(=O)O)=C(CSc3nc(=O)c(O)nn3C)CS[C@H]12)c1csc(N)n1"
  MIC90 [µg/mL]: 2

Pending compound:
In: Tell me MIC90 of `CCO/N=C(\C(=O)N[C@@H]1C(=O)N2C(C(=O)[O-])=C(Sc3nc(-c4cc[n+](C)cc4)cs3)CS[C@H]12)c1nsc(NP(=O)(O)O)n1` when tested on Streptococcus pneumoniae.
Out: 0.25
